# System: p-IKKa levels in L363 (NIK translocated multiple myeloma) cells
# Procedure text: Effect of compounds on p-IKKa levels in L363 (NIK translocated multiple myeloma) cells (AlphaLISA SureFire Ultra p-IKKa Ser176/180)
# Format: cell-based, human
# Experimental context: Homo sapiens, L-363, p-IKKa levels in L363 cells; average if tested more than once; read-out: Assay 2 IC50
pIC50: −log10 of the molar value.
Attribute measured: pIC50

Please review the entries below; each comes with its answer.
# query: pIC50 of entry CN1CC[C@@](O)(c2cccc(-c3nc(-c4ccnc(NCc5ccnn5C)n4)cs3)c2)C1=O < 6.30

Then what about the compound CN1CC[C@@](O)(c2cccc(-c3csc(-c4ccnc(NC5COC5)n4)n3)c2)C1=O ? 6.30 to 7.00

Check CN1CC[C@@](O)(c2cccc(-c3nc(-c4ccnc(Nc5nc(C(F)(F)F)cs5)n4)cs3)c2)C1=O too. 6.30 to 7.00

Switching to the query record.
What value of measured pIC50 is listed for CN1CC[C@@](O)(c2cccc(-c3nc(-c4ccnc(Nc5ccon5)n4)cs3)c2)C1=O ? 6.30 to 7.00

---

# Tested on: p-IKKa levels in L363 (NIK translocated multiple myeloma) cells
# Procedure text: Effect of compounds on p-IKKa levels in L363 (NIK translocated multiple myeloma) cells (AlphaLISA SureFire Ultra p-IKKa Ser176/180)
# Assay type: cell-based, human
# Experimental context: Homo sapiens, L-363, p-IKKa levels in L363 cells; average if tested more than once; read-out: Assay 2 IC50
# Procedure: Assay 2: Effect of Compounds on p-IKKa Levels in L363 (NIK Translocated Multiple Myeloma) Cells All compounds tested were dissolved and serially diluted in DMSO, 1:3 dilution for 11 points in an Echo compatible plate. 100% DMSO was added to columns 12 and 24 of the plate to serve as high and low signal controls. This compound plate was used to spot 20 nL of compound or DMSO into a Greiner 384 well TC plate (781080). The final DMSO concentration was 0.3% (v/v) in cell assays. […]
Reported IC50 is given for each of the following compounds.

Here are 5 compounds together with their reported answers.
Form field: reported IC50 of CN1CC[C@@](O)(c2cccc(-c3nc(-c4ccnc(Nc5ccccn5)n4)cs3)c2)C1=O > 501 nM

Would you mind doing CNC(=O)c1ccc(C)c(Nc2nccc(-c3csc(-c4cccc([C@]5(O)CCN(C)C5=O)c4)n3)n2)c1 as well? 100 to 500 nM

Can you handle CN1CC[C@@](O)(c2cccc(-c3nc(-c4ccnc(Nc5nccc(C(F)(F)F)n5)n4)cs3)c2)C1=O next? > 501 nM

Let us now turn to CN1CC[C@@](O)(c2cccc(-c3nc(-c4ccnc(NCCc5ccccn5)n4)cs3)c2)C1=O > 501 nM

What about CN1CC[C@@](O)(c2cccc(-c3nc(-c4ccnc(Nc5cnn(C6CCOCC6)c5)n4)cs3)c2)C1=O ? < 100 nM

---
Name the reported IC50 value associated with the compound Cc1cnc(CNc2nccc(-c3csc(-c4cccc([C@]5(O)CCN(C)C5=O)c4)n3)n2)o1 > 501 nM

Entry to check: Cc1nn(C(F)F)cc1Nc1nccc(-c2csc(-c3cccc([C@]4(O)CCN(C)C4=O)c3)n2)n1 < 100 nM
